- Tested on: Staphylococcus aureus
- MEASUREMENT DESCRIPTION: Inhibition of protein synthesis in methicillin-sensitive wild type Staphylococcus aureus over 1 hr by [14C]valine incorporation assay
- Type: functional, organism-based
Documented IC50 across a set of compounds

| STRUCTURE | QUALIFIER SIGN | IC50, µM |
| --- | --- | --- |
| CCNC(=O)Nc1cc(-c2nc(C(F)(F)F)cs2)c(-c2cncc(C(N)=O)c2)cn1 | = | 31 |
| O=C(O)c1cn(C2CC2)c2cc(N3CCNCC3)c(F)cc2c1=O | > | 195 |

* * *

- Tested on: Staphylococcus aureus
- MEASUREMENT DESCRIPTION: Antibacterial activity against methicillin-sensitive wild type Staphylococcus aureus assessed as growth inhibition after 18 to 24 hrs by CLSI broth microdilution method
- Assay type: functional
// reported MIC for each item listed

| STRUCTURE | MIC |
| --- | --- |
| CCNC(=O)Nc1cc(-c2nc(C(F)(F)F)cs2)c(-c2cncc(C(N)=O)c2)cn1 | 2.7 µg/mL |
| CCNC(=O)Nc1cc(-c2nc(C(F)(F)F)cs2)c(-c2cncc(-c3n[nH]c(=O)o3)c2)cn1 | 0.04 µg/mL |
| CCNC(=O)Nc1cc(-c2nc(C(F)(F)F)cs2)c(-c2cncc(-c3noc(=O)[nH]3)c2)cn1 | 48 µg/mL |
| CCNC(=O)Nc1ccc(-c2ccc(C(=O)O)cc2)cn1 | > 64 µg/mL |
| CCNC(=O)Nc1cc(-c2nc(C(F)(F)F)cs2)c(-c2cncc(-c3nnn[nH]3)c2)cn1 | > 64 µg/mL |
| CCNC(=O)Nc1ccc(-c2cncc(C(=O)O)c2)cn1 | > 64 µg/mL |
| CCNC(=O)Nc1cc(Br)c(-c2cncc(C(=O)O)c2)cn1 | > 9 µg/mL |
| CCNC(=O)Nc1cc(-c2nc(C(F)(F)F)cs2)c(-c2ncc(C(=O)O)s2)cn1 | > 64 µg/mL |
| CCNC(=O)Nc1cc(-c2nc(C(F)(F)F)cs2)c(-c2cncc(-c3nnc(C)o3)c2)cn1 | 0.19 µg/mL |
| CCNC(=O)Nc1ccc(-c2nc(C(=O)O)cs2)cn1 | > 64 µg/mL |
| CCNC(=O)Nc1cc(-c2nc(C(F)(F)F)cs2)c(-c2cncc(/C(N)=N/O)c2)cn1 | 0.36 µg/mL |
| CCNC(=O)Nc1cc(-c2ccccc2)c(-c2cncc(C(=O)O)c2)cn1 | > 64 µg/mL |
| CCNC(=O)Nc1ccc(-c2cccnc2)cn1 | > 48 µg/mL |
| CCNC(=O)Nc1ccc(-c2cccc(C(=O)O)c2)cn1 | > 64 µg/mL |
| CCNC(=O)Nc1cc(Cl)c(-c2cncc(C(=O)O)c2)cn1 | > 64 µg/mL |
| CCNC(=O)Nc1ccc(Oc2cccc(C(=O)O)c2)cn1 | > 64 µg/mL |
| C[C@H]1COc2c(N3CCN(C)CC3)c(F)cc3c(=O)c(C(=O)O)cn1c23.C[C@H]1COc2c(N3CCN(C)CC3)c(F)cc3c(=O)c(C(=O)O)cn1c23.O | 0.13 µg/mL |
| CCNC(=O)Nc1cc(-c2cccnc2)c(-c2cncc(C(=O)O)c2)cn1 | > 64 µg/mL |
| CCNC(=O)Nc1cc(-c2nc(C(F)(F)F)cs2)c(-c2cncc(-c3nc(C)no3)c2)cn1 | 0.37 µg/mL |
| CCNC(=O)Nc1cc(-c2ccncc2)c(-c2cncc(C(=O)O)c2)cn1 | > 9 µg/mL |
| CCNC(=O)Nc1ccc(-c2nc3cccc(C(=O)O)c3s2)cn1 | > 64 µg/mL |
| CCNC(=O)Nc1cc(-c2nc(C(F)(F)F)cs2)c(-c2cncc(-c3c(C)noc3C)c2)cn1 | > 9 µg/mL |
| CCNC(=O)Nc1cc(-c2nc(C(F)(F)F)cs2)c(-c2nc3cccc(C(=O)O)c3s2)cn1 | 3.1 µg/mL |
| CCNC(=O)Nc1cc(-c2nc(C(F)(F)F)cs2)c(-c2cncc(C#N)c2)cn1 | 0.33 µg/mL |
| CCNC(=O)Nc1cc(-c2nc(C(C)(C)C)cs2)c(-c2cncc(C(=O)O)c2)cn1 | > 64 µg/mL |
| CCNC(=O)Nc1cc(-c2nc(C(F)(F)F)cs2)c(-c2cncc(C(=O)O)c2)cn1 | > 64 µg/mL |
| CCNC(=O)Nc1ccc(-c2nc3cccc(C(N)=O)c3s2)cn1 | > 64 µg/mL |
| CCNC(=O)Nc1ccc(-c2ncc(C(=O)O)s2)cn1 | > 64 µg/mL |
| CCNC(=O)Nc1cc(-c2noc(C)n2)c(-c2cncc(C(=O)O)c2)cn1 | > 64 µg/mL |
| CCNC(=O)Nc1ccc(-c2ncc(C(N)=O)s2)cn1 | 64 µg/mL |
